Source: ChEMBL document CHEMBL1153845

Tested on: Entamoeba histolytica
assay procedure: Antiamnesic activity against Entamoeba histolytica HM-1:IMSS after 72 hrs by trypan blue exclusion assay
Type: functional, organism-based
pIC50: −log10 of the molar value.
Each entry below lists one item and its recorded pIC50 value.

Consider the worked cases shown below.
[[record]]
compound = "CC1(c2cccc(Br)c2)ON=C(c2ccc(Cl)cc2)O1 (configuration not stated)"
value_reported = "< 5.74"

[[record]]
compound = "Clc1ccc(C2=NOC(c3ccccc3Cl)O2)cc1 (configuration not stated)"
value_reported = 6.32

[[record]]
compound = "CC1(c2ccc(Cl)cc2)ON=C(c2ccc(Cl)cc2)O1 (configuration not stated)"
value_reported = "< 5.74"

[[record]]
compound = "Cc1ccc(C2ON=C(c3ccc(Cl)cc3)O2)cc1 (configuration not stated)"
value_reported = "< 5.74"

[[record]]
compound = "CCC1(c2cccc(Cl)c2)ON=C(c2ccccc2Cl)O1 (configuration not stated)"
value_reported = "< 5.74"


Find the recorded pIC50 belonging to CCC1(c2cccc(Br)c2)ON=C(c2ccc(Cl)cc2)O1 (configuration not stated) and report it.
< 5.74

Param item: CC1(c2cccc(Br)c2)ON=C(c2cccc(Cl)c2)O1 (configuration not stated)
< 5.74

Also Clc1cccc(C2=NOC(c3ccc(Cl)c(Cl)c3)O2)c1 (configuration not stated) ?
5.92

Cc1ccc(C2ON=C(c3ccccc3Cl)O2)cc1 (configuration not stated) ?
< 5.74

Same again, this time with CCC1(c2cccc(Br)c2)ON=C(c2ccccc2Cl)O1 (configuration not stated)
< 5.74

Please give the result for Clc1ccc(C2ON=C(c3ccccc3Cl)O2)cc1Cl (configuration not stated) too.
6.09

// query: CCc1ccc(C2ON=C(c3ccc(Cl)cc3)O2)cc1 (configuration not stated)
< 5.74

----------
assay procedure: Safety index, ratio of IC50 for HEK cells to IC50 for Entamoeba histolytica HM-1:IMSS
Type: toxicity, cell-based, HEK293
protocol conditions: human, HEK cells (versus Entamoeba histolytica HM-1:IMSS); read-out: Ratio IC50
Let's look at some molecules and their measured selectivity ratio.

See these solved cases before continuing.
[[record]]
molecule = "CC1(c2ccccn2)ON=C(c2ccc(Cl)cc2)O1 (configuration not stated)"
metric_name = "selectivity ratio"
value_reported = "> 63.3"

[[record]]
molecule = "CC1(c2cccc(Br)c2)ON=C(c2cccc(Cl)c2)O1 (configuration not stated)"
metric_name = "selectivity ratio"
value_reported = "> 55.5"

[[record]]
molecule = "CCc1ccc(C2ON=C(c3cccc(Cl)c3)O2)cc1 (configuration not stated)"
metric_name = "selectivity ratio"
value_reported = "> 55.5"

[[record]]
molecule = "Cc1ccc(C2ON=C(c3ccc(Cl)cc3)O2)cc1 (configuration not stated)"
metric_name = "selectivity ratio"
value_reported = "> 55.5"


Would you kindly share the measured selectivity ratio for Cc1ccc(C2ON=C(c3cccc(Cl)c3)O2)cc1 (configuration not stated) ?
> 55.5

And what about the molecule CC1(c2ccc(Cl)cc2)ON=C(c2ccccc2Cl)O1 (configuration not stated) ?
> 55.5

Same read-out for CC1(c2ccccn2)ON=C(c2cccc(Cl)c2)O1 (configuration not stated) ?
> 57.8

Quick one: Clc1cccc(C2=NOC(c3cccc(Cl)c3)O2)c1 (configuration not stated)
> 110

Param item: CCC1(c2cccc(Cl)c2)ON=C(c2ccccc2Cl)O1 (configuration not stated)
> 55.5

Entry to check: CCc1ccc(C2ON=C(c3ccccc3Cl)O2)cc1 (configuration not stated)
> 55.5

Now consider Clc1ccc(C2ON=C(c3ccccc3Cl)O2)cc1Cl (configuration not stated) and answer again.
> 124

Ok, now Cc1ncc([N+](=O)[O-])n1CCO [METRONIDAZOLE]
> 55.5

// next record Clc1ccccc1C1=NOC(c2ccccc2Cl)O1 (configuration not stated)
> 244

What about Clc1ccc(C2ON=C(c3cccc(Cl)c3)O2)cc1 (configuration not stated) ?
> 141

Please give the result for CCC1(c2cccc(Cl)c2)ON=C(c2cccc(Cl)c2)O1 (configuration not stated) too.
> 55.5

Try this molecule next: CC1(c2cccc(Br)c2)ON=C(c2ccccc2Cl)O1 (configuration not stated)
> 55.5

What about this molecule? Clc1cccc(C2=NOC(c3ccc(Cl)c(Cl)c3)O2)c1 (configuration not stated)
> 82.6

Same read-out for CCC1(c2cccc(Br)c2)ON=C(c2ccc(Cl)cc2)O1 (configuration not stated) ?
> 55.5

Would you kindly repeat that for Clc1ccc(C2=NOC(c3ccccc3Cl)O2)cc1 (configuration not stated) ?
> 208

Try CC1(c2ccc(Cl)cc2)ON=C(c2cccc(Cl)c2)O1 (configuration not stated) next.
> 55.5

Moving on to the next molecule: Clc1ccc(C2=NOC(c3ccc(Cl)cc3)O2)cc1 (configuration not stated)
> 189

Next molecule: Clc1cccc(C2=NOC(c3ccccc3Cl)O2)c1 (configuration not stated)
> 161
